In this section, each of the compounds is paired with its reported imetit-induced dipsogenia ED50.
- test target: H3 receptor (Rattus norvegicus)
- Construct: from tissue; host or cells: whole living rat (central H3 receptors); animals from Janvier Elevage, France
- Sequence (Q9QYN8 whole entry): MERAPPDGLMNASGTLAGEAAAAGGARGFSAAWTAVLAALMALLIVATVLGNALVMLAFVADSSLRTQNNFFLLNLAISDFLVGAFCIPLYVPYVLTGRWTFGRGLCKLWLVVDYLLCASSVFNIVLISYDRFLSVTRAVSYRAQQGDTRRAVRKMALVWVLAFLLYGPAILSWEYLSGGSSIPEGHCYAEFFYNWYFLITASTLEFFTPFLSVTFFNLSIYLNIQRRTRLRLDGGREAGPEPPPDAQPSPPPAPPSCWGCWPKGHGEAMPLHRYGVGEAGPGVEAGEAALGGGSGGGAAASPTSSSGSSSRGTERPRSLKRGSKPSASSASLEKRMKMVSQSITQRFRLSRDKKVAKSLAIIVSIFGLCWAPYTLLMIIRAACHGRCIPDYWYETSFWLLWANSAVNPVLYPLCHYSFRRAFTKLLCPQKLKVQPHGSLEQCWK
- experimental protocol: imetit-induced dipsogenia test
- Format: in vivo, Harlan Wistar rats
- condition details: rats, test compound p.o. 30 min before imetit 3 mg/kg sc.; reversal of water intake
- Protocol: Brain penetrant histamine H3 receptor agonists such as R-α-methylhistamine and imetit cause an acute increase in water intake in rodents (Galici et al., 2009; Barbier et al., 2007; Clapham and Kilpatrick, 1993; Garbarg et al., 1993). […] The protocol has been derived from Clapham and Kilpatrick (1992) with modifications. […] Water consumption was measured 30 min later. […] Water consumption was measured after a free drinking period of 10 min. […]
Entry rule: numbers only, all in mg/kg p.o..

[
  {
    "compound": "Clc1ccc(CCCOCCCN2CCCCC2)cc1",
    "imetit-induced dipsogenia ED50 (mg/kg p.o.)": 11
  },
  {
    "compound": "C[C@@H]1CCCN1CCc1cc2cc(-c3ccc(C#N)cc3)ccc2o1",
    "imetit-induced dipsogenia ED50 (mg/kg p.o.)": 0.26
  },
  {
    "compound": "CCNC(=O)C1CC(F)(c2ccc(CN3CCCC3)c(F)c2)C1 (stereo not shown)",
    "imetit-induced dipsogenia ED50 (mg/kg p.o.)": 0.78
  }
]

Okay, next one:
Return reported imetit-induced dipsogenia ED50. Input compound: `CNC(=O)c1ccc(Oc2ccc3c(c2)CCN(C2CCC2)CC3)nc1`
0.14

###

- test target: H3 receptor (Rattus norvegicus)
- Construct: from tissue; host or cells: whole living rat (central H3 receptors); animals from Janvier Elevage, France
- experimental protocol: imetit-induced dipsogenia test
- Assay type: in vivo, Harlan Wistar rats
- condition details: rats, test compound p.o. 30 min before imetit 3 mg/kg sc.; reversal of water intake
- Procedure: Brain penetrant histamine H3 receptor agonists such as R-α-methylhistamine and imetit cause an acute increase in water intake in rodents (Galici et al., 2009; Barbier et al., 2007; Clapham and Kilpatrick, 1993; Garbarg et al., 1993). […] The protocol has been derived from Clapham and Kilpatrick (1992) with modifications. […] Water consumption was measured 30 min later. […] Water consumption was measured after a free drinking period of 10 min. […]
In this section, each of the compounds is paired with its reported imetit-induced dipsogenia ED50.

Known imetit-induced dipsogenia ED50 results, listed for orientation:
[
  {
    "compound": "O=C(CN1CCOCC1)Nc1ccc(OC2CCN(C3CCC3)CC2)cc1 [samelisant]",
    "test target": "H3 receptor (Rattus norvegicus)",
    "imetit-induced dipsogenia ED50": "< 1 mg/kg p.o."
  },
  {
    "compound": "Cn1nc(N2CCC(OC(=O)N3CCN(C4CCC4)CC3)CC2)ccc1=O [LML-134]",
    "test target": "H3 receptor (Rattus norvegicus)",
    "imetit-induced dipsogenia ED50": "< 1 mg/kg p.o."
  }
]

Okay, next one:
Return reported imetit-induced dipsogenia ED50. Input compound: O=C(c1ccc(CN2CCOCC2)cc1)N1CCN(C2CC2)CC1 [bavisant]
< 0.3 mg/kg p.o.
